meta.source: ChEMBL document CHEMBL3045400

# system_name: Allene oxide synthase, chloroplastic (Arabidopsis thaliana, UniProt Q96242)
# Sequence (Q96242 whole entry): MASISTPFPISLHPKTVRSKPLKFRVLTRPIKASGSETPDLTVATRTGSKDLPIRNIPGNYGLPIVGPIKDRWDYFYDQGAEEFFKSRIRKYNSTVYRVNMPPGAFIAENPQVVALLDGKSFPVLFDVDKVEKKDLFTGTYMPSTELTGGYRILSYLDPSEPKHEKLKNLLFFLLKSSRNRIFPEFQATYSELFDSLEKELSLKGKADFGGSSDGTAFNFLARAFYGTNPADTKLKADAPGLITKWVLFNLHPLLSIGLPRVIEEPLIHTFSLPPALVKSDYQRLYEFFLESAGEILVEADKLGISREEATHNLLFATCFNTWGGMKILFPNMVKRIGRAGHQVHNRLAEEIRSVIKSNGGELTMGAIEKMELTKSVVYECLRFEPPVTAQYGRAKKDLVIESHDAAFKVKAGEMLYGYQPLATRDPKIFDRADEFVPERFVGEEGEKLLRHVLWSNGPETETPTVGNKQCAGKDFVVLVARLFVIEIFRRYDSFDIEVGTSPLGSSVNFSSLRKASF
# assay_protocol: Inhibition of recombinant Arabidopsis thaliana allene oxide synthase activity by spectrophotometry
pIC50: −log10 of the molar value.
property_name: pIC50

1) COC(=O)CCCCCCCOC(Cn1ccnc1)c1ccc(Cl)cc1Cl (stereo unspecified) ... 6.07
2) COC(=O)CCCCCCCOC(Cn1cncn1)c1ccc(OC)cc1 (stereo unspecified) ... 5.59
3) COC(=O)CCCCCCCOC(Cn1cncn1)c1ccc(-c2ccccc2)cc1 (stereo unspecified) ... 4.27
4) COC(=O)CCCCCCCOC(Cn1cncn1)c1ccc(F)cc1 (stereo unspecified) ... 4.84
5) CCCCCCCOC(=O)CCCCCCCOC(Cn1ccnc1)c1ccc(Cl)cc1Cl (stereo unspecified) ... 8.00
6) COC(=O)CCCCCCCOC(Cn1cncn1)c1ccc(Cl)cc1Cl (stereo unspecified) ... 6.08
7) COC(=O)CCCCCCCOC(Cn1cncn1)c1ccc2ccccc2c1 (stereo unspecified) ... 6.12
8) COC(=O)CCCCCCCOC(Cn1cncn1)c1ccc(Cl)c(Cl)c1 (stereo unspecified) ... 6.03
9) COC(=O)CCCCCCCOC(Cn1cncn1)c1cccc(OC)c1 (stereo unspecified) ... 4.65
10) COC(=O)CCCCCCCOC(Cn1cncn1)c1ccc(Cl)cc1 (stereo unspecified) ... 5.92
11) COC(=O)CCCCCCCOC(Cn1cncn1)c1ccccc1 (stereo unspecified) ... 5.80
